Target: ALK1 (Bos taurus, UniProt A4FUX2)
Construct: The BAOEC cell line was employed for the measurement of ALK1 activity using BMP9 as the agonist; host or cells: BAOEC (bovine aortic endothelial cells)
Sequence (A4FUX2 23-503): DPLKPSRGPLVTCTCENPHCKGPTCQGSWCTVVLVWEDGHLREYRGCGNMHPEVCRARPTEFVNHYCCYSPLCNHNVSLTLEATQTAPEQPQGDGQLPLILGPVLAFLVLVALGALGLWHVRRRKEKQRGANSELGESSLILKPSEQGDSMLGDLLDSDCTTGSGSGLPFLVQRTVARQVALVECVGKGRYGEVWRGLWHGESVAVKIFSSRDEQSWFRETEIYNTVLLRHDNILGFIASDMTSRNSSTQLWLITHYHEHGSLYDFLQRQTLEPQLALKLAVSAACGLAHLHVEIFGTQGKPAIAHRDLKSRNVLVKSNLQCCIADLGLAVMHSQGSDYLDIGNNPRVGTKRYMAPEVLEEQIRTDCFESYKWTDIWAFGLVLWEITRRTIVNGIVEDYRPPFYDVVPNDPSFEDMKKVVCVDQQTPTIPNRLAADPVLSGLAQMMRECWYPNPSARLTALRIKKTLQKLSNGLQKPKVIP
Assay: In-cell Western ALK1 assay (BAOEC cells, BMP9 as agonist)
Format: cell-based, Bovine
Settings: read-out: BMP9 ICW
Value Type: IC50 (nM)

In [3]: df
Out[3]:
                                   molecule  value_type  experimental_result
0  CC(C)(CN1CCCCC1)Oc1ccc(-c2cnc3c(-c4cccc5c(C(N)=O)cccc45)cnn3c2)cc1 [Compound 18]        IC50                   26
1  N/C(=N/O)c1ccc(-c2cnn3cc(-c4ccc(N5CCNCC5)cc4)cnc23)c2ccccc12 [Compound 15]        IC50                 1500
2  CC1(c2ccc(-c3cnc4c(-c5cccc(S(C)(=O)=O)c5)cnn4c3)cc2)CCNCC1 [Compound 115]        IC50                 1500
3  C[C@@H]1CNC[C@H](C)N1c1ccc(-c2cnc3c(-c4cccc(C[S+](C)(=O)[O-])c4)cnn3c2)cc1 [Compound 117]        IC50                 2400
4  C[C@@H]1CNC[C@H](C)N1c1ccc(-c2cnc3c(-c4cccc([S+](=O)([O-])C5CC5)c4)cnn3c2)cc1 [Compound 111]        IC50                 1800
5  CS(=O)(=O)c1cccc(-c2cnn3cc(-c4ccc(OCCN5CCCC5)cc4)cnc23)c1 [Compound 108]        IC50                 3900
